Each entry below carries its reported composite z-score.
- assay-notes: small-molecule microarray binders of probe aWnt5a, primary screen, biochemical, biotinylated probe, 635/667 nm fluorescence (AID 1113);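 further: score merges 667 nm fluorescence intensity with signal-to-noise per printed feature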
- condition-details: higher = more signal
Respond using a number only.

// query Recorded composite z-score for `CC(=O)NCCCC[C@@H]1NC(=O)[C@@H]2C[C@H](C(=O)NCCCCN(C)C)[C@H](c3cccc(OCCO)c3)N2C1=O` , please?
// result -0.0944

// query And what about the compound `C=CCOC(=O)[C@H]1[C@@H]2C(=O)O[C@@H](c3ccccc3)[C@@H](c3ccccc3)N2[C@@H](c2ccc(OCCOC(=O)[C@H]3C[C@H]4C(=O)N5CCC[C@H]5C(=O)N4[C@H]3c3ccc(O)cc3)cc2)[C@]12C(=O)Nc1ccccc12` ?
// result 0.0354

// query And `CCCC=C(CCC)[C@@H](NC(=O)Oc1ccc(F)cc1)c1ccc(C(=O)OC)cc1` ?
// result 0.0307

====

- assay-notes: basal 3T3-L1 adipocyte mitochondrial potential changes, profiling panel, cell-based, JC-1 fluorescence, 3T3-L1 adipocytes, 24 h, 100 nL compound (AID 1168); further: test concentration not given here
- condition-details: JC-1 mitochondrial fluorescence, higher = more signal, called active from +8 up or from −8 down
Classify as follows. Reported z-score greater than or equal to 0.3: MET. Reported z-score below: NOT MET.

Worked examples, 4 compounds total:
COc1ccc(C(O)C2C=CC3C(=O)N(C)C(=O)C3N2N2CCCCC2)c2ccccc12 (stereo unspecified)	NOT MET
Cc1ccc(C(C)CC(O)C2C=CC3C(=O)N(C)C(=O)C3N2NC(=O)OC(C)(C)C)o1 (stereo unspecified)	NOT MET
CC(C)OC(=O)C=C1C[C@@H](c2ccccc2C(F)(F)F)O[C@@H](c2ccccc2C(F)(F)F)O1	MET
COCC(=C=CC[C@H](O)c1ccccc1OCCO)C[C@H](O)c1cc(Cl)cc(Cl)c1O	MET

Let's switch to this compound now.
// query z-score >= 0.3 for `C=C(COC)/C(=C/C[C@H](OC(=O)c1ccncc1)c1ccc(OCCO)cc1)c1cnc2ccccc2c1` ?
// result NOT MET

====

- assay-notes: CREB reporter modulators without forskolin, primary screen, cell-based, PC12, CRE-LacZ reporter, unstimulated (AID 1145)
- condition-details: no forskolin, luminescence, 4.5 h, higher = more signal, called active from +8 up or from −8 down
Activity calls are given as the source filed them.
Let's look at some molecules and their measured z-score.

Below are worked cases with known answers.
COc1ccc(C(O)C2C=CC3C(=O)NC(=O)C3N2Nc2ccccn2)c2ccccc12 (configuration not stated)	-0.133 (inactive)
C#CCN(Cc1ccccc1Br)C(/C=C/c1ccccc1)CO (configuration not stated)	5.19 (inactive)
C=CCN1C(=O)[C@]2(O[C@H](CCO)[C@@H]([Si](C)(C)c3ccc(OC)cc3)[C@@H]2C)c2cc(N3C(=O)c4cccc5cccc3c45)ccc21	23.5 (active)
COc1ccc(C#Cc2ccc3c(c2)[C@]2(C(=O)N3)[C@H](c3ccccc3OCCO)N3[C@H](c4ccccc4)[C@H](c4ccccc4)OC(=O)[C@H]3[C@@H]2C(=O)O)cc1	-1.16 (inactive)
COCCOC(=O)N1C(=O)[C@@]2(c3cc(C#CC4=CCCCC4)ccc31)[C@H](c1ccc(O)cc1)N1[C@H](c3ccccc3)[C@H](c3ccccc3)OC(=O)[C@H]1[C@@H]2C(N)=O	0.0695 (inactive)

// query Could you tell me which z-score is on file for `O=C1O[C@@H](c2ccccc2)[C@@H](c2ccccc2)N2[C@@H](c3ccc(OCCO)cc3)[C@]3(C(=O)Nc4ccccc43)[C@@H](C(=O)NC[C@H](O)c3ccccc3)[C@H]12` ?
// result -0.606 (inactive)

// query Also `CN(C)C(=O)[C@]1(Cc2ccccc2CN=[N+]=[N-])N=C(c2ccc(OCCCO)cc2)O[C@@H]1c1ccccc1CN=[N+]=[N-]` , if possible.
// result 1.31 (inactive)

The measured values listed here are drawn from PubChem BioAssay.
